System: MCF-7
Test: drug sensitivity score (DSS) (DSS (dimensionless)); higher = more sensitive; extreme values may be limits of the assay
Conditions: 4-OH-tamoxifen in medium 0 µM; 72 h
Kindly supply the reported drug sensitivity score values for the records listed here.
One number for each entry.

Some compounds with known drug sensitivity score results, for comparison:
# COMPOUND, ENDPOINT, QUANTITATIVE_RESULT
records = [
    ("CC[C@H](Nc1ncnc2[nH]cnc12)c1nc2cccc(F)c2c(=O)n1-c1ccccc1 [CAL-101]", "drug sensitivity score", 2.04),
    ("CC1(C)NC(=O)N(c2ccc([N+](=O)[O-])c(C(F)(F)F)c2)C1=O [Nilutamide]", "drug sensitivity score", 0),
    ("CC(C)(C#N)c1cc(Cn2cncn2)cc(C(C)(C)C#N)c1 [Anastrozole]", "drug sensitivity score", 0),
    ("Cc1ccc(C(=O)N(CCCN)[C@@H](c2oc3cc(Cl)ccc3c(=O)c2Cc2ccccc2)C(C)C)cc1", "drug sensitivity score", 0),
    ("CCS(=O)(=O)c1cccc(-c2cc(C(=O)NC3CCN(C)CC3)c(C)c3[nH]c4ncc(C)cc4c23)c1 [TAK-901]", "drug sensitivity score", 0.354),
    ("Cc1ccc(-c2cc(C(F)(F)F)nn2-c2ccc(S(N)(=O)=O)cc2)cc1 [Celecoxib]", "drug sensitivity score", 0.0979),
    ("Cc1sc2c(c1C)C(c1ccc(Cl)cc1)=N[C@@H](CC(=O)OC(C)(C)C)c1nnc(C)n1-2 [(+)JQ1]", "drug sensitivity score", 12.8),
]

Task item: Entry CNC(=O)c1ccc(N2C(=S)N(c3ccc(C#N)c(C(F)(F)F)c3)C(=O)C2(C)C)cc1F [Enzalutamide (MDV 3100)] has what drug sensitivity score?
Reply: 0
